assay-text: yeast display, Sf9 membrane polyspecificity reagent, FACS + sequencing; frameworks hold sequencing errors

ordered-residues	polyreactivity (PSR sort gate)
QVQLVESGGGLVQAGGILRISCAASGSTFGWYTMGWYRQAPGKERELVAAITSRGTRTSYADSVTGRFTISRDIAKNTVYLQMNSLKTEDTAVYYCAARVFRGLGEYYWGQGTQVTVSS	high polyreactivity
QVQLVESGGGLVQAGGSLRFSCAASGFIFVRYAMGWYRQAPGKERELVAAISGSGGRTYYADSVKGRFTISRDNAKNTVYLQMTSLKPEDTAVYYCNGTSYTYGYLPYDYWGQGTQVTVSS	high polyreactivity
QVQLVESGGGLVQAGGSLRLSCAASGFIFWGNTMGWYRQAPGKERELVAAISSSGGRTYYADSVKGRFTISRDNAKNTVYLQMNSLKPEDTAVYYCAKVRRSDYDSDYWGQGTQVTVSS	high polyreactivity

* * *

assay-text: yeast display, Sf9 membrane polyspecificity reagent, FACS + sequencing; frameworks hold sequencing errors
measurement-type: polyreactivity (PSR sort gate)

// known answers, use as guide
ordered-residues	reported-value
QVQLVDSGGGLVQAGGSLRLSCAASGSIILLNAMGWYRQAPGKEREMVARIRINGGSTYYADSVKGRFTISRDNAKNTVYLKMNSLKPEDTAVYYCAADDTGPYSNWYDYWGQGTQVTVSS	low polyreactivity
QVQLVESGGGLVQAGGSLRLSCAASGSTFRPYAMGWYRQAPGKERELVAAITFNGDTYADSVKGRFTISRDNAKNTVYLQMNSLKPEDTAVYYCNAESVSSPPYYDYWGQGTQVTVSS	high polyreactivity
QVQLVESGGGLVQAGGSLRLSCAASGFTFSWYTMGWYRQAPGKERELVAAITSGGSTNYADSVKGRFTISRDNAKNTVYLQMNSLKPEDTAVYYCNAYWSYSISGYDYWGQGTQVTVSS	low polyreactivity
QVQLVESGGGLVQAGGSLRLSCAASGRIFKQYAMGWYRQAPGKEREFVAAISSRGTRTYYADSVKGRFTISRDNAKNTVYLQMISLKPEDTAVYYCNAVQAQAAYEYWGQGTQVTVSS	high polyreactivity
QVHLVESGGGLVQAGGSLRLSCAASGSIFFDGNAMGWYRQAPGKERELVAAISVSGGSTYYADSVKGRFTISRDNAKNTVYLQMNSLKPEDTAVYYCAKYPSNSYVPGDYWGQGTQVTVSS	low polyreactivity

Turning now to a further record.
**Q:** Which polyreactivity (PSR sort gate) value belongs to QVQLVESGGGLVQAGGSLRLSCAASGLTFWANTMGWCRQAPGKEREFVAAITWSGGSTYYADSVKGRFTISRDNAKNTVNLQMNSLKPEDTAVYYCAADEDFAAGYSYYYWGQGSQVTVSS ?
**A:** low polyreactivity

* * *

assay-text: yeast display, Sf9 membrane polyspecificity reagent, FACS + sequencing; frameworks hold sequencing errors
measurement-type: polyreactivity (PSR sort gate)

Before answering, review these 5 worked examples.
ordered-residues	polyreactivity (PSR sort gate)
QVQLQESGGGLVQAGGSLRLSCAASGTISTIEPMGWYRQAPGKERELVACIGAGTITNYADSVKGRFTISRDNDTVYLQMNSLKPEDTAVYYCNADGWYALYEWLAVSGYYWGQGTQVTVSS	low polyreactivity
QVQLVESGGGLVQAGGSLRLSCAASGRIFPFYAMGWYRQAPGKERELVAAISSSGGSTYYADSVKGRFTISRDHAKNTVYFQMNSLKPEDTAVYYCAATRNSDGMGYWGQGTQVTVSS	low polyreactivity
QVQLVESGGGLVQAGGSLRLSCAASGRIFSDNAMGWYRQAPGKERELVATINYSGGSTYYADSVKGRFTISRDNAKNTVYLQMNSLKPEDTAVYYCATRIPHRINYYDYDYWGQGTQVTVSS	low polyreactivity
QVQLVESGGGLVQAGGSLRLSCAASGRIFYRNAMGWYRQAPGKERELVAAITSGGSTYYADSVKGRFTISRDNAKNTVYLQMNSLKPEDTAVYYCAAAYQRWFNRRDYWGQGTQVTVSS	high polyreactivity
QGQLVESGGGVVQAGGSLRLSCAASGRIFYRNAMGWYRQAPGKVRELVAAINWSGGSTYYADSVKGRFTISRDNAKNTVYLQMNSLKPEDTAVYYCAARFVRYPSKYDYWGQGTQVTVSS	high polyreactivity

Now consider the entry below.
**Q:** Find the recorded polyreactivity (PSR sort gate) belonging to QVQLVESGGGLVQPVGSLRLSCAASGYTFPRYTMGWSRQAPGKERELVAAITSSGSTNYADSVKGRFTISRDNAKNTVYLQMNSLKPEDTAVYYCNKARIRTWSRGYDYWGQGTQLTVSS and report it.
**A:** high polyreactivity
